Biological target: phosphorylated c-MET (Homo sapiens)
Construct: endogenous in cells
Test: c-MET cell mechanistic assay (phosphorylated c-MET in MKN45 cells)
Conditions: MKN45 cell line, four hours incubation, phosphorylated c-MET levels, at least duplicate experiments; read-out: Met mech IC50
IC50 listing for selected molecules.

Some molecules with recorded IC50:
CC(c1c(Cl)ccc(F)c1Cl)c1c[nH]c2ncc(-c3ccc(C(=O)N4CCCC4)cc3)cc12 (centres unmarked)	0.1 to 1 µM
CC(c1c(Cl)ccc(F)c1Cl)c1c[nH]c2ncc(-c3cnn(C)c3)cc12 (centres unmarked)	≤ 0.1 µM
COCCNC(=O)c1ccc(-c2cnc3[nH]cc(C(C)c4c(Cl)ccc(F)c4Cl)c3c2)cc1 (centres unmarked)	0.1 to 1 µM
C[C@H](c1c(Cl)ccc(F)c1Cl)c1c[nH]c2ncc(-c3cnn(C4CCNCC4)c3)cc12	≤ 0.1 µM
C[C@H](c1c(Cl)ccc(F)c1Cl)c1c[nH]c2ncc(C3=CCCN(C(N)=O)C3)cc12	≤ 0.1 µM
CC(c1c(Cl)ccc(F)c1Cl)c1c[nH]c2ncc(-c3cnn(C4CCN(S(N)(=O)=O)CC4)c3)cc12 (centres unmarked)	0.1 to 1 µM

Request the reported IC50 associated with CC(c1c(Cl)ccc(F)c1Cl)c1c[nH]c2ncc(-c3ccc(C(=O)NCCO)cc3)cc12 (centres unmarked)
0.1 to 1 µM

Request the reported IC50 associated with CC(c1c(Cl)ccc(F)c1Cl)c1c[nH]c2ncc(-c3ccc(C(=O)N4CCOCC4)cc3)cc12 (centres unmarked)
0.1 to 1 µM

---

Measured IC50 on UniProt:P08581 follows.

CC(c1c(Cl)cccc1Cl)c1c[nH]c2ncc(-c3cnn(C4CCNCC4)c3)cc12 (centres unmarked)	≤ 100 nM

Now look at this entry.
For the record CC(c1c(Cl)ccc(F)c1Cl)c1c[nH]c2ncc(-c3cnn(C4CCN(C=O)CC4)c3)cc12 (centres unmarked) , what value of IC50 is listed for UniProt:P08581?
≤ 100 nM

---

Test system: MKN45 cells
Assay: MKN45 cell proliferation assay (CellTiter-Glo)
Type: cell-based
Conditions: Homo sapiens, MKN-45, 72 h, MKN45 cell line, 3 days incubation, at least duplicate experiments, read-out: Prolif. IC50
IC50 listing for selected compounds.

Some compounds with recorded IC50:
C[C@H](c1c(Cl)ccc(F)c1Cl)c1c[nH]c2ncc(-c3cnn(C[C@H](O)CO)c3)cc12	≤ 100 nM
CC(c1c(Cl)ccc(F)c1Cl)c1c[nH]c2ncc(-c3ccc(N4CCOCC4)cc3)cc12 (stereo not drawn)	100 to 1000 nM

Now look at this entry.
Request the reported IC50 associated with CC(c1c(Cl)ccc(F)c1Cl)c1c[nH]c2ncc(-c3cnn(C4CCN(S(C)(=O)=O)CC4)c3)cc12 (stereo not drawn)
100 to 1000 nM

---

Test system: MKN45 cells
Assay: MKN45 cell proliferation assay (CellTiter-Glo)
Type: cell-based
Details: Homo sapiens, MKN-45, 72 h, MKN45 cell line, 3 days incubation, at least duplicate experiments, read-out: Prolif. IC50
pIC50: −log10 of the molar value.
pIC50 listing for selected compounds.

CC(c1c(Cl)ccc(F)c1Cl)c1c[nH]c2ncc(C3=CCN(C(N)=O)CC3)cc12 (stereo not shown) [Example 33]	6.00 to 7.00
CC(c1c(Cl)ccc(F)c1Cl)c1c[nH]c2ncc(-c3ccc(C(=O)N4CCCC4)cc3)cc12 (stereo not shown) [Example 4]	6.00 to 7.00
CC(c1c(Cl)ccc(F)c1Cl)c1c[nH]c2ncc(-c3cnn(C4CN(C(N)=O)C4)c3)cc12 (stereo not shown) [Example 56]	6.00 to 7.00
C[C@H](c1c(Cl)ccc(F)c1Cl)c1c[nH]c2ncc(-c3cnn(C(C)(C)CO)c3)cc12 [Example 85]	6.00 to 7.00
CNC(=O)c1ccc(-c2cnc3[nH]cc(C(C)c4c(Cl)ccc(F)c4Cl)c3c2)cc1 (stereo not shown) [Example 5]	6.00 to 7.00
C[C@H](c1c(Cl)ccc(F)c1Cl)c1c[nH]c2ncc(-c3ccc(C(=O)N4CCNCC4)cc3)cc12 [Example 69]	6.00 to 7.00

Request the reported pIC50 associated with CNC(=O)N1CCC(n2cc(-c3cnc4[nH]cc(C(C)c5c(Cl)ccc(F)c5Cl)c4c3)cn2)CC1 (stereo not shown) [Example 51]
≥ 7.00

Request the reported pIC50 associated with CC(c1c(Cl)ccc(F)c1Cl)c1c[nH]c2ncc(-c3cnn(C(C)C)c3)cc12 (stereo not shown) [Example 30]
6.00 to 7.00

Request the reported pIC50 associated with C[C@H](c1c(Cl)ccc(F)c1Cl)c1c[nH]c2ncc(-c3cnn(C4CCNCC4)c3)cc12 [Example 80]
≥ 7.00

Request the reported pIC50 associated with CC(c1c(Cl)ccc(F)c1Cl)c1c[nH]c2ncc(-c3ccc(N)cc3)cc12 (stereo not shown) [Example 18]
6.00 to 7.00

Request the reported pIC50 associated with CC(=O)N1CC(n2cc(-c3cnc4[nH]cc(C(C)c5c(Cl)ccc(F)c5Cl)c4c3)cn2)C1 (stereo not shown) [Example 58]
6.00 to 7.00

Request the reported pIC50 associated with CC(c1c(Cl)ccc(F)c1Cl)c1c[nH]c2ncc(-c3ccc(C(N)=O)cc3)cc12 (stereo not shown) [Example 14]
5.00 to 6.00

---

Target: phosphorylated c-MET (Homo sapiens, UniProt P08581)
Construct: endogenous in cells
Sequence (P08581 25-1390): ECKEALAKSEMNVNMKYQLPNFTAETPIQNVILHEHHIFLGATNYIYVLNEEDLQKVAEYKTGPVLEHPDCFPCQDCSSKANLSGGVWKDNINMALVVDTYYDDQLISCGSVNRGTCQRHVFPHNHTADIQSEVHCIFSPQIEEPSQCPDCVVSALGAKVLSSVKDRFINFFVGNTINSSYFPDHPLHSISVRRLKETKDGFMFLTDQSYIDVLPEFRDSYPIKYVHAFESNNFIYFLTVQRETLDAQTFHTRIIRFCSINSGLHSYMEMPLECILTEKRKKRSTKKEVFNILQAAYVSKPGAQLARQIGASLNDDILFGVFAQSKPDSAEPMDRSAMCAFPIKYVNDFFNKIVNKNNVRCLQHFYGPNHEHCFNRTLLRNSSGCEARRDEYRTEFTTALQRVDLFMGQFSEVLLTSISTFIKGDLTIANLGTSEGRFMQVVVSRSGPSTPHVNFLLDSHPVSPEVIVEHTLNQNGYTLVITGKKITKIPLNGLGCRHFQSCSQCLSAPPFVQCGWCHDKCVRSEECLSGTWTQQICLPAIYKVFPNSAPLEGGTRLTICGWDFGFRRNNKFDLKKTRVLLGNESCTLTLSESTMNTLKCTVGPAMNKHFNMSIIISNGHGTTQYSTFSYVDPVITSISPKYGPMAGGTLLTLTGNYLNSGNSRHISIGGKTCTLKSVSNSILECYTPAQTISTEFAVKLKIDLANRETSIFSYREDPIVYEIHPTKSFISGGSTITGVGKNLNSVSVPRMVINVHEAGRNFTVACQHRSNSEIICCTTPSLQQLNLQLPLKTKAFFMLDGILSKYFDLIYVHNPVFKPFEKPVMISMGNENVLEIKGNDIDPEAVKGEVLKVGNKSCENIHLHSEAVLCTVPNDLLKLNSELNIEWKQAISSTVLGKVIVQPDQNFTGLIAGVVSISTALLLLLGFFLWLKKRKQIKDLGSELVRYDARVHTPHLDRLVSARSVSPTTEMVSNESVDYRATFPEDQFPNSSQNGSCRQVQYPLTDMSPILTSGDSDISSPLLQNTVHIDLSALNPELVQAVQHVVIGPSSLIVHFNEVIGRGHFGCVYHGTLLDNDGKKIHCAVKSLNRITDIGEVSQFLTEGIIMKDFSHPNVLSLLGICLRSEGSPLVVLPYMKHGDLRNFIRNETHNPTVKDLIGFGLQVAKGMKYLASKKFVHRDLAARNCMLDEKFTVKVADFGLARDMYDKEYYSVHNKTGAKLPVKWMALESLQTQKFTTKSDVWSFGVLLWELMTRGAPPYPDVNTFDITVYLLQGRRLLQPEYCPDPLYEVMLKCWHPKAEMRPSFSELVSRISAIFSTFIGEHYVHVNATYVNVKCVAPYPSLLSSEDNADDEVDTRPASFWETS
Assay: c-MET cell mechanistic assay (phosphorylated c-MET in MKN45 cells)
Details: MKN45 cell line, four hours incubation, phosphorylated c-MET levels, at least duplicate experiments; read-out: Met mech IC50
pIC50: −log10 of the molar value.
pIC50 listing for selected molecules.

Some molecules with recorded pIC50:
C[C@H](c1c(Cl)ccc(F)c1Cl)c1c[nH]c2ncc(-c3cnn(CC(N)=O)c3)cc12 [Example 77]	≥ 7.00
CC(c1c(Cl)ccc(F)c1Cl)c1c[nH]c2ncc(-c3ccc(S(=O)(=O)N(C)C)cc3)cc12 (centres unmarked) [Example 22]	5.00 to 6.00
CNC(=O)N1CC=C(c2cnc3[nH]cc(C(C)c4c(Cl)ccc(F)c4Cl)c3c2)CC1 (centres unmarked) [Example 34]	6.00 to 7.00
CC(c1c(Cl)ccc(F)c1Cl)c1c[nH]c2ncc(-c3cnn(C(C)(C)C(=O)N(C)C)c3)cc12 (centres unmarked) [Example 63]	≥ 7.00

Request the reported pIC50 associated with C[C@H](c1c(Cl)ccc(F)c1Cl)c1c[nH]c2ncc(-c3cnn(CC(=O)O)c3)cc12 [Example 74]
6.00 to 7.00

---

Tested on: MKN45 cells
Assay: MKN45 cell proliferation assay (CellTiter-Glo)
Format: cell-based
Conditions: Homo sapiens, MKN-45, 72 h, MKN45 cell line, 3 days incubation, at least duplicate experiments, read-out: Prolif. IC50
Property Label: IC50

Request the reported IC50 associated with CC(c1c(Cl)ccc(F)c1Cl)c1c[nH]c2ncc(-c3cnn(CCN4CCOCC4)c3)cc12 (centres unmarked)
≤ 100 nM

Request the reported IC50 associated with CC(c1c(Cl)ccc(F)c1Cl)c1c[nH]c2ncc(-c3cnn(C4CCN(C=O)CC4)c3)cc12 (centres unmarked)
≤ 100 nM

Request the reported IC50 associated with CC(c1c(Cl)ccc(F)c1Cl)c1c[nH]c2ncc(-c3ccc(S(=O)(=O)N(C)C)cc3)cc12 (centres unmarked)
1000 to 10000 nM

Request the reported IC50 associated with CC(c1c(Cl)ccc(F)c1Cl)c1c[nH]c2ncc(-c3ccc(NS(C)(=O)=O)cc3)cc12 (centres unmarked)
1000 to 10000 nM

Request the reported IC50 associated with CC(c1c(Cl)ccc(F)c1Cl)c1c[nH]c2ncc(C3=CCN(C(=O)C(C)(C)O)CC3)cc12 (centres unmarked)
100 to 1000 nM

Request the reported IC50 associated with CC(=O)Nc1ccc(-c2cnc3[nH]cc(C(C)c4c(Cl)ccc(F)c4Cl)c3c2)cc1 (centres unmarked)
1000 to 10000 nM

Request the reported IC50 associated with CC(c1c(Cl)ccc(F)c1Cl)c1c[nH]c2ncc(-c3ccc(O)cc3)cc12 (centres unmarked)
1000 to 10000 nM

Request the reported IC50 associated with CC(c1c(Cl)ccc(F)c1Cl)c1c[nH]c2ncc(-c3cnn(C(C)(C)C(=O)N(C)C)c3)cc12 (centres unmarked)
100 to 1000 nM

Request the reported IC50 associated with C[C@H](c1c(Cl)ccc(F)c1Cl)c1c[nH]c2ncc(-c3cnn(C4CCN(C(N)=O)CC4)c3)cc12
≤ 100 nM

Request the reported IC50 associated with CC(c1c(Cl)ccc(F)c1Cl)c1c[nH]c2ncc(-c3cnn(C(C)(C)C(N)=O)c3)cc12 (centres unmarked)
100 to 1000 nM

Request the reported IC50 associated with CC(c1c(Cl)ccc(F)c1Cl)c1c[nH]c2ncc(-c3cnn(C4CCN(C(N)=O)CC4)c3)cc12 (centres unmarked)
≤ 100 nM

Request the reported IC50 associated with CC(c1c(Cl)ccc(F)c1Cl)c1c[nH]c2ncc(-c3cnn(C4CNC4)c3)cc12 (centres unmarked)
100 to 1000 nM

Request the reported IC50 associated with CC(c1c(Cl)ccc(F)c1Cl)c1c[nH]c2ncc(-c3ccsc3)cc12 (centres unmarked)
1000 to 10000 nM

Request the reported IC50 associated with CC(c1c(Cl)ccc(F)c1Cl)c1c[nH]c2ncc(C3=CCN(C(=O)CO)CC3)cc12 (centres unmarked)
≤ 100 nM

Request the reported IC50 associated with COCCNC(=O)c1ccc(-c2cnc3[nH]cc(C(C)c4c(Cl)ccc(F)c4Cl)c3c2)cc1 (centres unmarked)
1000 to 10000 nM

Request the reported IC50 associated with CC(c1c(Cl)ccc(F)c1Cl)c1c[nH]c2ncc(-c3ccccc3)cc12 (centres unmarked)
> 10000 nM

Request the reported IC50 associated with C[C@H](c1c(Cl)ccc(F)c1Cl)c1c[nH]c2ncc(-c3cnn(CC(N)=O)c3)cc12
≤ 100 nM
